Test system: T. cruzi blood trypomastigote (INC-5 strain)
Experiment: ex vivo evaluation against blood trypomastigotes, INC-5 strain
Type: cell-based
Settings: Trypanosoma cruzi; ex vivo, INC-5 strain, 24 h at 4 °C; read-out: T.cruzi blood trypomastigote IC50 INC-5
Procedure: The high-priority hit drugs were subjected to experimental validation in vitro, ex vivo, and in vivo, together with a cytotoxicity assay. Ninoa and INC-5 strains of T. cruzi were used in this study. […] Ex vivo evaluation of different FDA-approved drugs against Trypanosoma cruzi blood trypomastigotes. […] After incubation, live parasites were counted in a Neubauer chamber and the IC50 was calculated. […]
Listing: pIC50 of selected molecules
Lab note — pIC50 values are minus log10 of concentrations in M.

Reference set, count: 4
1) Nc1nc(=O)c2nc(CNc3ccc(C(=O)N[C@@H](CCC(=O)O)C(=O)O)cc3)cnc2[nH]1 :: 4.67
2) COc1ccc2cc([C@H](C)C(=O)O)ccc2c1 :: 4.42
3) O=C(Cn1ccnc1[N+](=O)[O-])NCc1ccccc1 :: 3.88
4) CC1CS(=O)(=O)CCN1/N=C/c1ccc([N+](=O)[O-])o1 (stereo not shown) :: 3.94

Kindly review the next molecule as well.
Sure, the documented pIC50 for O=C(O)c1cn(C2CC2)c2cc(N3CCNCC3)c(F)cc2c1=O is 4.67

----------
Listing: Parasitemia inhibition percentage over the time, 6 horas Ninoa of selected compounds
System: T. cruzi Ninoa strain
Assay: in vivo short-term trypanocidal activity (parasitemia) in infected CD1 mice, Ninoa strain
Parameters: species or system Trypanosoma cruzi in CD1 mice
Details: 100 mg/kg oral, 6 horas (second, last column so headed), Ninoa
When you answer, write just the number.

Reference set, count: 3
1. O=C(O)c1cn(C2CC2)c2cc(N3CCNCC3)c(F)cc2c1=O [Ciprofloxacin] :: 33.3
2. COc1ccc2cc([C@H](C)C(=O)O)ccc2c1 [Naproxen] :: 14.2
3. Nc1nc(=O)c2nc(CNc3ccc(C(=O)N[C@@H](CCC(=O)O)C(=O)O)cc3)cnc2[nH]1 [Folic acid] :: 42.8

Kindly review the next compound as well.
Sure, the documented Parasitemia inhibition percentage over the time, 6 horas Ninoa for CC1CS(=O)(=O)CCN1/N=C/c1ccc([N+](=O)[O-])o1 (stereo not shown) [Nifurtimox] is 22.2

----------
Test system: T. cruzi Ninoa strain
Assay: in vivo short-term trypanocidal activity (parasitemia) in infected CD1 mice, Ninoa strain
Design: species or system Trypanosoma cruzi in CD1 mice
Conditions: 100 mg/kg oral, 6 horas (first column so headed), Ninoa
assay.endpoint: Parasitemia inhibition percentage over the time, 6 horas Ninoa
When you answer, write just the number.

Reference set, count: 3
1. CC1CS(=O)(=O)CCN1/N=C/c1ccc([N+](=O)[O-])o1 (stereo not shown) :: 27.0
2. O=C(O)c1cn(C2CC2)c2cc(N3CCNCC3)c(F)cc2c1=O :: 33.3
3. COc1ccc2cc([C@H](C)C(=O)O)ccc2c1 :: 28.5

Kindly review the next compound as well.
I looked up Nc1nc(=O)c2nc(CNc3ccc(C(=O)N[C@@H](CCC(=O)O)C(=O)O)cc3)cnc2[nH]1 and its Parasitemia inhibition percentage over the time, 6 horas Ninoa for T. cruzi Ninoa strain was 42.8

----------
Test system: T. cruzi Ninoa strain
Test: in vivo short-term trypanocidal activity (parasitemia) in infected CD1 mice, Ninoa strain
Set-up: species or system Trypanosoma cruzi in CD1 mice
Conditions: mice infected with Ninoa strain, single oral dose 100 mg/kg, eight hours after administration
Listing: parasitemia inhibition of selected compounds
Could you give me the number in %? Just the number is fine.

1) CC1CS(=O)(=O)CCN1/N=C/c1ccc([N+](=O)[O-])o1 (stereo not shown) :: 77.8
2) COc1ccc2cc([C@H](C)C(=O)O)ccc2c1 :: 85.8
3) O=C(O)c1cn(C2CC2)c2cc(N3CCNCC3)c(F)cc2c1=O :: 66.7

Kindly review the next compound as well.
Sure, the documented parasitemia inhibition for Nc1nc(=O)c2nc(CNc3ccc(C(=O)N[C@@H](CCC(=O)O)C(=O)O)cc3)cnc2[nH]1 is 57.2
